system.tested: human HER3 endogenously expressed on human cancer cells (SK-Br-3, BT-474, MCF7) (human, UniProt P21860 20-1342)
assay.remarks: cell-based or functional assay
Measured MCF7 proliferation IC50, listed per entry.

>  <binder>
MOR12514 (antibody, human IgG1, lambda, V domains shown, Tested as IgG) VH: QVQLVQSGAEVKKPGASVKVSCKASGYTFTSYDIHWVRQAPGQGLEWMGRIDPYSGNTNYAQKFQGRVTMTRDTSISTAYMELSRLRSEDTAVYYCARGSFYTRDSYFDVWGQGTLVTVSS VL: DIALTQPASVSGSPGQSITISCTGTSSDVGTYNQVSWYQQHPGKAPKLMIYGVSKRPSGVSNRFSGSKSGNTASLTISGLQAEDEADYYCQVRDMSLFDVFGGGTKLTVLG

>  <MCF7 proliferation IC50 [nM]>
0.317

$$$$
>  <binder>
MOR12605 (antibody, human IgG1, kappa, V domains shown, Tested as IgG) VH: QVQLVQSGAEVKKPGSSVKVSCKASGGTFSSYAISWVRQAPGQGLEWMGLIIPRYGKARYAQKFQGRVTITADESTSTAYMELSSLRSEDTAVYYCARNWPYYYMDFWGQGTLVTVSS VL: DIVLTQSPATLSLSPGERATLSCRASQNIVFNLAWYQQKPGQAPRLLIYDASNRATGVPARFSGSGSGTDFTLTISSLEPEDFAVYYCQQFRRKSNTFGQGTKVEIKR

>  <MCF7 proliferation IC50 [nM]>
0.028

$$$$
>  <binder>
MOR12606 (antibody, human IgG1, kappa, V domains shown, Tested as IgG) VH: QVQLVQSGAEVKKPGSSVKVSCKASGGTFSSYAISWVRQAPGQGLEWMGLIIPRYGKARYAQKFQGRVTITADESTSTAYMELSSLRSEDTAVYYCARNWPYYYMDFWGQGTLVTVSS VL: DIVLTQSPATLSLSPGERATLSCRASQNIVFNLAWYQQKPGQAPRLLIYDASNRATGVPARFSGSGSGTDFTLTISSLEPEDFAVYYCQQTKSKPSPTFGQGTKVEIKR

>  <MCF7 proliferation IC50 [nM]>
0.052

$$$$
>  <binder>
MOR12604 (antibody, V domains shown, Tested as IgG) VH: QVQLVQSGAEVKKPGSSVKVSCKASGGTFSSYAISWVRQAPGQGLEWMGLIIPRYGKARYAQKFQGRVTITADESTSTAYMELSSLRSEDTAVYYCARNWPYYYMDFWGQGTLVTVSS VL: DIVLTQSPATLSLSPGERATLSCRASQNIVFNLAWYQQKPGQAPRLLIYDASNRATGVPARFSGSGSGTDFTLTISSLEPEDFAVYYCQQKKSMPLTFGQGTKVEIKR

>  <MCF7 proliferation IC50 [nM]>
0.073

$$$$
